Experiment: qHTS assay for measurement of the activity of small molecule inhibitors on Zika virus induced Caspase-3 activity in human iPSC derived neural progenitor cells (hNPCs) (AID 1224857); also: nearly all actives have a fitted effect of over 65% in size
Details: hNPCs ZIKV-induced caspase-3/7, Caspase-Glo luminescence, 6 h; series mostly up to 45.7 µM
Experimental: National Center for Advancing Translational Sciences [NCATS] Johns Hopkins University School of Medicine […] The medium for hNPCs consists of DMEM/F12, N2 supplement (ThermoFisher, Cat.# 17502048), NEAA (ThermoFisher, Cat. # 11140050), 2 ug/ml heparin, 2 uM cyclopamine, and B27 (ThermoFisher, Cat. # 17504044). […] The luminescence intensity of the assay plates was measured using a ViewLux plate reader (PerkinElmer). […]
Inconclusive results are not listed. Active and inactive are the calls of the source. Calls follow the shape of the dose curve; as a rule, active = well fitted inhibition curve with a large enough effect; inconclusive = small, poorly fitted or top-dose-only effect; inactive = no such curve, though single readings can be large or run the other way.
# valid calls are 1 for active, 0 for inactive; nothing else

QUERY: State the result this test recorded for O=C(Nc1ncc(SCCN2CCCC2)s1)[C@]1(c2ccc(S(=O)(=O)C3CC3)cc2)C[C@@H]1C1CCCCC1 .
RESULT: 0

QUERY: State the result this test recorded for CCNC(=O)CCCC=CC[C@@H]1[C@H](C=CC(O)CCc2ccccc2)[C@@H](O)C[C@@H]1O (stereo not given in full) .
RESULT: 0

QUERY: State the result this test recorded for CN(C)CCN(Cc1ccc(Cl)cc1)c1ccccn1 .
RESULT: 0

QUERY: State the result this test recorded for N#CC(c1ccc(Cl)cc1)c1c(Cl)cc(-n2ncc(=O)[nH]c2=O)cc1Cl (stereo not given) .
RESULT: 0

QUERY: State the result this test recorded for C=C1c2cccc(O)c2C(O)=C2C(=O)[C@@]3(O)C(O)=C(C(N)=O)C(=O)[C@@H](N(C)C)[C@@H]3[C@@H](O)[C@H]12 .
RESULT: 0

QUERY: State the result this test recorded for O=S(=O)(NCCNCC=Cc1ccc(Br)cc1)c1cccc2cnccc12 .
RESULT: 0

QUERY: State the result this test recorded for CCC(C)SSc1ncc[nH]1 (stereo not given) .
RESULT: 1

QUERY: State the result this test recorded for COc1ccc2nc3cc(Cl)ccc3c(Nc3cc(CN4CCCC4)c(O)c(CN4CCCC4)c3)c2n1 .
RESULT: 0

QUERY: State the result this test recorded for C[C@@]1(C(=O)Nc2ccc(F)nc2)CCCN1c1nc(Nc2cc(C3CC3)[nH]n2)c2cccn2n1 .
RESULT: 0

QUERY: State the result this test recorded for CC=C(C(=CC)c1ccc(O)cc1)c1ccc(O)cc1 .
RESULT: 0
